Could you please report measured protein stability index for the items listed next?
B1: NCK2 (parent)
chain: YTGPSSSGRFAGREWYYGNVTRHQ

variants of: B1; test: protein stability index of a GFP-peptide fusion (GPS, HEK-293T) (PSI 1-6); higher = more stable; settings: c terminus: a fixed tail appended;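 also: lentivirally expressed fusions sorted by FACS into six bins by GFP to DsRed ratio, PSI derived from sequencing read proportions per bin multiplied by bin number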
Lab note: jot down the number only; don't add units.

Problem: Quick one: protein stability index for `N19R` ?
Result: 2.53

Problem: Quick one: protein stability index for `Y16A` ?
Result: 2.24

Problem: Quick one: protein stability index for `G18A` ?
Result: 1.46

Problem: Quick one: protein stability index for `N19F` ?
Result: 2.01

Problem: Quick one: protein stability index for `Y16T` ?
Result: 2.45

Problem: Quick one: protein stability index for `R22N` ?
Result: 2.35

Problem: Quick one: protein stability index for `S6C` ?
Result: 1.69

Problem: Quick one: protein stability index for `Q24E` ?
Result: 1.41

Values compiled from the supplement of paper PMC10567573.
